Test: Cyto-toxicity (MTT assay)
Format: cell-based
Structures can show the parent of a compound that is named as a salt.
Criterion: viability at 4 days, 1 µM strictly under 4%. Met: rule met. Not met: rule not met.

Compound	Assigned Label
CC(C)C1=C2[C@H]3CC[C@@H]4[C@@]5(C)CC[C@H](OC(=O)[C@H]6C[C@@H](C(=O)O)C6(C)C)C(C)(C)[C@@H]5CC[C@@]4(C)[C@]3(C)CC[C@@]2(NC(=O)C(C)(C)NC(=O)C(C)(C)N)CC1=O [Example 11, hydrochloride]	rule met
CC(C)C1=C2[C@H]3CC[C@@H]4[C@@]5(C)CC[C@H](OC(=O)[C@H]6C[C@@H](C(=O)O)C6(C)C)C(C)(C)[C@@H]5CC[C@@]4(C)[C@]3(C)CC[C@@]2(NC(=O)C(C)(C)NCCN(C)C)CC1=O [Example 73]	rule not met
CC(C)C1=C2[C@H]3CC[C@@H]4[C@@]5(C)CC[C@H](OC(=O)[C@H]6C[C@@H](C(=O)O)C6(C)C)C(C)(C)[C@@H]5CC[C@@]4(C)[C@]3(C)CC[C@@]2(NC(=O)C(C)(C)NC(=O)C2(c3ccccc3)CCCC2)CC1=O [Example 27]	rule met
CC(C)C1=C2[C@H]3CC[C@@H]4[C@@]5(C)CC[C@H](OC(=O)[C@H]6C[C@@H](C(=O)O)C6(C)C)C(C)(C)[C@@H]5CC[C@@]4(C)[C@]3(C)CC[C@@]2(NC(=O)C(C)(C)NC(=O)CN(C)C)CC1=O [Example 59]	rule not met
CC(C)C1=C2[C@H]3CC[C@@H]4[C@@]5(C)CC[C@H](OC(=O)[C@H]6C[C@@H](C(=O)O)C6(C)C)C(C)(C)[C@@H]5CC[C@@]4(C)[C@]3(C)CC[C@@]2(NC(=O)C2(NC(=O)c3ccc(F)cc3)CC2)CC1=O [Example 39]	rule met
CC(C)C1=C2[C@H]3CC[C@@H]4[C@@]5(C)CC[C@H](OC(=O)[C@H]6C[C@@H](C(=O)O)C6(C)C)C(C)(C)[C@@H]5CC[C@@]4(C)[C@]3(C)CC[C@@]2(NC(=O)C(C)(C)NC(=O)C2(c3ccc(Cl)cc3)CC2)CC1=O [Example 2]	rule not met
CC(C)C1=C2[C@H]3CC[C@@H]4[C@@]5(C)CC[C@H](OC(=O)[C@H]6C[C@@H](C(=O)O)C6(C)C)C(C)(C)[C@@H]5CC[C@@]4(C)[C@]3(C)CC[C@@]2(NC(=O)C2(NC(=O)c3ccc(Cl)cc3)CC2)CC1=O [Example 37]	rule met
Cc1cccc(C(=O)NC(C)(C)C(=O)N[C@@]23CC[C@]4(C)[C@H](CC[C@@H]5[C@@]6(C)CC[C@H](OC(=O)[C@H]7C[C@@H](C(=O)O)C7(C)C)C(C)(C)[C@@H]6CC[C@]54C)C2=C(C(C)C)C(=O)C3)n1 [Example 60]	rule met
Cc1cnc(C(=O)NC(C)(C)C(=O)N[C@@]23CC[C@]4(C)[C@H](CC[C@@H]5[C@@]6(C)CC[C@H](OC(=O)[C@H]7C[C@@H](C(=O)O)C7(C)C)C(C)(C)[C@@H]6CC[C@]54C)C2=C(C(C)C)C(=O)C3)cn1 [Example 7]	rule met
CC(C)C1=C2[C@H]3CC[C@@H]4[C@@]5(C)CC[C@H](OC(=O)[C@H]6C[C@@H](C(=O)O)C6(C)C)C(C)(C)[C@@H]5CC[C@@]4(C)[C@]3(C)CC[C@@]2(NC(=O)C(C)(C)NC(=O)c2ccc(F)cc2)CC1=O [Example 22]	rule met
CC(C)C1=C2[C@H]3CC[C@@H]4[C@@]5(C)CC[C@H](OC(=O)[C@H]6C[C@@H](C(=O)O)C6(C)C)C(C)(C)[C@@H]5CC[C@@]4(C)[C@]3(C)CC[C@@]2(NC(=O)C(C)(C)NC(=O)c2ccc3[nH]c(-c4cnccn4)nc3c2)CC1=O [Example 15]	rule met

Cited source: patent US20170008921A1
